B1: library; numbered along this chain (parent)
chain: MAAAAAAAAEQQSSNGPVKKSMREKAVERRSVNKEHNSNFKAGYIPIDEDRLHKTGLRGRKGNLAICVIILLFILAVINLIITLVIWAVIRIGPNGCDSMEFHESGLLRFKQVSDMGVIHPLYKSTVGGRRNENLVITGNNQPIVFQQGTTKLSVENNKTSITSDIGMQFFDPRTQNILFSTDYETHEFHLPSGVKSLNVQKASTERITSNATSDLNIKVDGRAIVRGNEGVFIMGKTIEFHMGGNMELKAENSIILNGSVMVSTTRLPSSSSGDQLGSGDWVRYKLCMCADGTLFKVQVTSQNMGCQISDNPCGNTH

variants of: B1; assay: SGCB cell-surface expression functional score (HA stain, bin4 vs bin1, normalised to synonymous) (log10 ratio); higher = more cell-surface SGCB (functional)
Tick class 1 if SGCB cell-surface expression functional score (log10) is -0.1 or greater. Tick class 0 if SGCB cell-surface expression functional score (log10) is less than -0.1.

mutation_code | discrete_label
G231H | class 1
L277V | class 0
V226C | class 1
N246G | class 1
I162M | class 1
N304C | class 1
V220D | class 0
N140D | class 0
N258W | class 1
K159I | class 1

Hello, I need to know if E252I has measured SGCB cell-surface expression functional score (log10) not below -0.1. Thanks!
class 1

Moving on to G306T
class 0

Moving on to R30W
class 1

Moving on to D165P
class 1

Moving on to A65G
class 1

Moving on to I166T
class 1

Moving on to V89F
class 0

Moving on to G128W
class 1

Moving on to S310W
class 1

Moving on to S154L
class 0

Moving on to T175M
class 0

Moving on to N95R
class 1

Moving on to C314R
class 0

Moving on to V200E
class 0
